Values were extracted from paper PMC9881875.

# target desc: DLG1 PDZ1 (UniProt Q12959 220-317)
# Sequence (Q12959 220-317): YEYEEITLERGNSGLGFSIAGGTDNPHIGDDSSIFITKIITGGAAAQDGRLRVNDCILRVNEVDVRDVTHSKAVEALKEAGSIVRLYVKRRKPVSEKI
# measurement protocol: fluorescence polarisation
measure: Ki

> print(dat)
                             binder  result
1  SSRTVQDTRL [_(SSRT)CFTR peptide]  > 1 mM
